Taken from patent US20250009801A1.

target: T1, human Claudin18.2-His (Acro, CL2-H5546) (human, UniProt P56856-2 1-261); test: SPR (Biacore T200), Claudin18.2-His coupled on CM5 chip, antibody in the mobile phase (avidity)
T1 construct: Bought reagent, amine-coupled to a CM5 chip; also called recombinant human CLDN18.2 protein; not shown: His tag
OUTCOME_MEASURE: koff (s⁻¹)
# unit: s⁻¹ | format: bare number

Hz3G3 PG Ab (antibody, human IgG1, kappa, V domains shown, also called G3 PG antibody; G3 antibody) VH: QVQLVQSGAEVKKPGASVKVSCKASGYSFTTYWMHWVRQAPGQGLEWMGLIDPSDSETRLNQKFKDRVTMTVDTSTSTVYMELSSLRSEDTAVYYCASNRWLLGWGQGTLVTVSS VL: DIVMTQSPDSLAVSLGERATINCKSSQSLLNSGNQKNYLTWYQQKPGQPPKLLIYWASTRESGVPDRFSGSGSGTDFTLTISSLQAEDVAVYYCQNDYSYPLTFGQGTKLEIKR	0.00177

Now take the following binder into account.
Reported koff for Hz69H9-SA PG Ab (antibody, human IgG1, kappa, V domains shown, Mutant of the parent Hz69H9 with point mutations in VH or VL; also called H9-SA PG antibody) VH: QVQLVQSGAEVKKPGSSVKVSCKASGYSFSSYNISWVRQAPGQGLEWMGYIAPFQGDARYNQKFKGRVTITADKSTSTAYMELSSLRSEDTAVYYCARLNRGNSLDYWGQGTLVTVSS VL: DIVMTQSPDSLAVSLGERATINCKSSQSLFNSGNQRNYLTWYQQKPGQPPKLLIYWASTRESGVPDRFSGSGSGTDFTLTISSLQAEDVAVYYCQNNYIYPLTFGGGTKVEIKR was 0.000153
